These measurements were taken from patent US11986471B2.

System: HAP1 MTAP-intact
assayOverview: SDMA in-cell western assay, HAP1 MTAP-intact cell line
Format: cell-based
experimentalContext: Homo sapiens
observedProperty: IC50

Exam item: Requested field: IC50. Item: CO[C@H]1CC[C@H](Nc2cc(C(=O)NC[C@H](O)CN3CCc4c(ccc(OCc5cnco5)c4C)C3)ncn2)CC1 [Compound 572]
Marked response: ≥ 10 µM

Exam item: Requested field: IC50. Item: Cc1c(OCc2cnco2)ccc2c1CCN(C[C@@H](O)CNC(=O)c1ccnc(NC3CCC3)c1)C2 [Compound 179]
Marked response: ≥ 10 µM

Exam item: Requested field: IC50. Item: Cc1c(OCc2cnco2)ccc2c1CCN(C[C@@H](O)CNC(=O)c1cc(NC3CCC3)ccn1)C2 [Compound 515]
Marked response: 1 to 10 µM

Exam item: Requested field: IC50. Item: Cc1ncoc1COc1ccc2c(c1)CCN(C[C@@H](O)CNC(=O)c1cc(Nc3cccnc3)nc(N3[C@@H]4CC[C@H]3COC4)c1)C2 [Compound 603]
Marked response: 1 to 10 µM

Exam item: Requested field: IC50. Item: CC(=O)N1CCC(Nc2cc(C(=O)NC[C@H](O)CN3CCc4cc(OCc5ocnc5C)ccc4C3)ccn2)CC1 [Compound 622]
Marked response: ≥ 10 µM

Exam item: Requested field: IC50. Item: Cc1c(OCc2cnco2)ccc2c1CCN(C[C@@H](O)CNC(=O)c1cc(N[C@H]3CC[C@H](C(=O)N4CCCCC4)CC3)ncn1)C2 [Compound 589]
Marked response: ≥ 10 µM

Exam item: Requested field: IC50. Item: CCN1CCN(c2nc(NC3COC3)cc(C(=O)NC[C@H](O)CN3CCc4cc(OCc5cnco5)ccc4C3)n2)CC1 [Compound 353]
Marked response: 1 to 10 µM

----------
testedOn: PRMT5 (Homo sapiens, UniProt O14744)
Construct: purchased Viva (custom protein)
Sequence (O14744 whole entry): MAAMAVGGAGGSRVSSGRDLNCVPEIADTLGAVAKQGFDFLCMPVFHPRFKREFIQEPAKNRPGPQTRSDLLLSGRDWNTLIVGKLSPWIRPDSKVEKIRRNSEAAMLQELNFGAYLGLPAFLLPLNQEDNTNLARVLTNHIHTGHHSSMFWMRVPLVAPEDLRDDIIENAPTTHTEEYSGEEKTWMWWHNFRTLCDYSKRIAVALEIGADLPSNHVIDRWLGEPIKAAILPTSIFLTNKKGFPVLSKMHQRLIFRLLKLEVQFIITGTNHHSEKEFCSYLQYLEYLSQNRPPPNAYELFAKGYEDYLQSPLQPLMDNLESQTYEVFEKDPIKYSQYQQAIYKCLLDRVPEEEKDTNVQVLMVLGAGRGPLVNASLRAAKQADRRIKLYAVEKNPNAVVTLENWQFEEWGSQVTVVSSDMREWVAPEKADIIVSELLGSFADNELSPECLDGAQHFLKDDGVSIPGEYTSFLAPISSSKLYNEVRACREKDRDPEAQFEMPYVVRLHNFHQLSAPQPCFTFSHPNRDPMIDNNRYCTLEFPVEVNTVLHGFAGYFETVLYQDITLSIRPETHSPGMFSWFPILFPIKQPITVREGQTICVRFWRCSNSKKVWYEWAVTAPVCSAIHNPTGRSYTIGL
Sequence (Q9BQA1 whole entry partner): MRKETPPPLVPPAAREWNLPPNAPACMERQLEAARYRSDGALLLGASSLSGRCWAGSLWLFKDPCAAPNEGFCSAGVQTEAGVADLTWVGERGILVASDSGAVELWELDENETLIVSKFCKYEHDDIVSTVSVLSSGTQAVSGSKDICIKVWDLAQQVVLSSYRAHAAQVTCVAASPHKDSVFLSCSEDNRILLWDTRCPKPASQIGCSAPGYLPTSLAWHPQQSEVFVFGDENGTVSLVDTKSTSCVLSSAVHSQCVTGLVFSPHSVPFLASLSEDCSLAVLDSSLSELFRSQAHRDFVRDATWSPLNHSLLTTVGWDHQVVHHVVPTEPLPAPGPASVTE
assayOverview: PRMT5 IC50 assay in the presence of SAM as cofactor
Type: biochemical
observedProperty: IC50

> print(dat)
                          structureassmiles   observedvalue
1  COCCN(C)c1nc(NC2COC2)cc(C(=O)NC[C@H](O)CN2CCc3cc(OCc4cnco4)ccc3C2)n1    50 to 500 nM
2  Cc1ncoc1COc1ccc2c(c1)CCN(C[C@@H](O)CNC(=O)c1cc(NC3CCN(C(=O)C(C)(C)C)CC3)ncn1)C2    50 to 500 nM
3  CCCC(=O)N1CCC(Nc2cc(C(=O)NC[C@H](O)CN3CCc4c(ccc(OCc5cnco5)c4C)C3)ccn2)CC1    50 to 500 nM
4  CC(=O)N1CCC(Nc2ccnc(C(=O)NC[C@H](O)CN3CCc4c(ccc(OCc5cnco5)c4C)C3)c2)CC1    50 to 500 nM
5  CCC(=O)N1CCN(c2cc(C(=O)NC[C@H](O)CN3CCc4c(ccc(OCc5ocnc5C)c4C)C3)cc(NC3CCC3)n2)CC1    50 to 500 nM
6  Cc1ncoc1COc1ccc2c(c1Br)CCN(C[C@@H](O)CNC(=O)c1ccnc(NC3CCCCC3)c1)C2  500 to 5000 nM
7  Cc1ncoc1COc1ccc2c(c1C)CCN(C[C@@H](O)CNC(=O)c1cc(NC3COC3)nc(N3CCN(C)CC3)n1)C2    50 to 500 nM
8  CCN(C)c1nc(NC2COC2)cc(C(=O)NC[C@H](O)CN2CCc3cc(OCc4ocnc4C)ccc3C2)n1    50 to 500 nM

Exam item: Requested field: IC50. Item: `Cc1ncoc1COc1ccc2c(c1C)CCN(C[C@@H](O)CNC(=O)c1ccnc(NC3CCC3)c1)C2`
Marked response: 50 to 500 nM

Exam item: Requested field: IC50. Item: `Cc1ncoc1COc1ccc2c(c1I)CCN(C[C@@H](O)CNC(=O)c1ccnc(NC3CCC3)c1)C2`
Marked response: 500 to 5000 nM

Exam item: Requested field: IC50. Item: `CC(=O)N1CCC(Nc2cc(C(=O)NC[C@H](O)CN3CCc4c(ccc(OCc5cn[nH]c5)c4Cl)C3)ncn2)CC1`
Marked response: 50 to 500 nM

Exam item: Requested field: IC50. Item: `CCC(=O)N1CCN(c2cc(C(=O)NC[C@H](O)CN3CCc4cc(OCc5cnco5)ccc4C3)cc(NC3CCC3)n2)CC1`
Marked response: 50 to 500 nM

Exam item: Requested field: IC50. Item: `CCCC(=O)N1CCC(Nc2cc(C(=O)NC[C@H](O)CN3CCc4c(ccc(OCc5cnco5)c4C)C3)ncn2)CC1`
Marked response: 50 to 500 nM

----------
Tested on: HAP1 MTAP-intact
assayOverview: SDMA in-cell western assay, HAP1 MTAP-intact cell line
Format: cell-based
experimentalContext: Homo sapiens
Reported IC50 is given for each of the following molecules.

Reference set, count: 3
> print(dat)
                          structureassmiles          testedon  observedproperty  observedvalue
1  O=C(NC[C@H](O)CN1CCc2c(ccc(OCc3cnco3)c2Cl)C1)c1cc(NC2CCC2)nc(N2CCCCC2)c1  HAP1 MTAP-intact              IC50        ≥ 10 µM
2  CC(=O)N1CC(Nc2cc(C(=O)NC[C@H](O)CN3CCc4c(ccc(OCc5cnco5)c4C)C3)ccn2)C1  HAP1 MTAP-intact              IC50        ≥ 10 µM
3  CC(C)N1CCN(c2cc(C(=O)NC[C@H](O)CN3CCc4c(ccc(OCc5cnco5)c4Cl)C3)cc(NC3CCC3)n2)CC1  HAP1 MTAP-intact              IC50        ≥ 10 µM

Exam item: Requested field: IC50. Item: `COc1ccc(C(=O)N2CCc3cc(C(=O)NC[C@H](O)CN4CCc5cc(OCc6ocnc6C)c(F)cc5C4)ccc3C2)cc1`
Marked response: 1 to 10 µM

Exam item: Requested field: IC50. Item: `COc1cc(C(=O)NC[C@H](O)CN2CCc3c(ccc(OCc4cnco4)c3Cl)C2)cc(NC2CCC2)n1`
Marked response: ≥ 10 µM

Exam item: Requested field: IC50. Item: `CC(=O)N1CCC(Nc2cc(C(=O)NC[C@@H](O)CN3CCc4cc(OCc5ocnc5C)ccc4C3)ncn2)CC1`
Marked response: ≥ 10 µM

Exam item: Requested field: IC50. Item: `O=C(NC[C@H](O)CN1CCc2cc(OCc3cnco3)ccc2C1)c1cc(NC2CCCCC2)ncn1`
Marked response: ≥ 10 µM

Exam item: Requested field: IC50. Item: `O=C(NC[C@H](O)CN1CCc2cc(OCc3cnco3)ccc2C1)c1cc(NC2COC2)nc(N2CCCCC2)n1`
Marked response: 1 to 10 µM

Exam item: Requested field: IC50. Item: `Cc1c(OCc2cnco2)ccc2c1CCN(C[C@@H](O)CNC(=O)c1ccnc(NC3CC4(CC4)C3)c1)C2`
Marked response: ≥ 10 µM

Exam item: Requested field: IC50. Item: `Cc1c(OCc2cnco2)ccc2c1CCN(C[C@@H](O)CNC(=O)c1ccnc(NC3CCN(C(=O)C4CCC4)CC3)c1)C2`
Marked response: ≥ 10 µM

Exam item: Requested field: IC50. Item: `CC(=O)N1CCC(Nc2cc(C(=O)NC[C@H](O)CN3CCc4cc(OCc5ocnc5C)ccc4C3)cc(N3CCCCC3)n2)CC1`
Marked response: 1 to 10 µM

Exam item: Requested field: IC50. Item: `Cc1ncoc1COc1ccc2c(c1Br)CCN(C[C@@H](O)CNC(=O)c1cc(NC3CCC3)ncn1)C2`
Marked response: ≥ 10 µM

Exam item: Requested field: IC50. Item: `Cc1ncoc1COc1ccc2c(c1C)CCN(C[C@@H](O)CNC(=O)c1cc(NC3CCC3)ncn1)C2`
Marked response: ≥ 10 µM

Exam item: Requested field: IC50. Item: `CCC(=O)N1CC(Nc2cc(C(=O)NC[C@H](O)CN3CCc4c(ccc(OCc5cnco5)c4Cl)C3)ccn2)C1`
Marked response: ≥ 10 µM

Exam item: Requested field: IC50. Item: `CC(=O)N1CCC(Nc2cc(C(=O)NC[C@H](O)CN3CCc4nc(OCc5cnco5)ccc4C3)ncn2)CC1`
Marked response: ≥ 10 µM

Exam item: Requested field: IC50. Item: `CN(C)CCOc1cc(C(=O)NC[C@H](O)CN2CCc3c(ccc(OCc4cnco4)c3Cl)C2)cc(NC2CCC2)n1`
Marked response: ≥ 10 µM

Exam item: Requested field: IC50. Item: `Cc1ncoc1COc1ccc2c(c1Br)CCN(C[C@@H](O)CNC(=O)c1cccc(NC3CCC3)c1)C2`
Marked response: ≥ 10 µM

Exam item: Requested field: IC50. Item: `Cc1ncoc1COc1ccc2c(c1)CCN(C[C@@H](O)CNC(=O)c1ccnc(Nc3cccnc3)c1)C2`
Marked response: 1 to 10 µM

Exam item: Requested field: IC50. Item: `Cc1ncoc1COc1ccc2c(c1)CCN(C[C@@H](O)CNC(=O)c1cc(NC3CCC3)ncc1F)C2`
Marked response: 1 to 10 µM

Exam item: Requested field: IC50. Item: `CCCN(C)c1nc(NC2COC2)cc(C(=O)NC[C@H](O)CN2CCc3cc(OCc4cnco4)ccc3C2)n1`
Marked response: 1 to 10 µM

Exam item: Requested field: IC50. Item: `O=C(NC[C@H](O)CN1CCc2nc(OCc3cnco3)ccc2C1)c1ccnc(NC2CCC2)c1`
Marked response: ≥ 10 µM

Exam item: Requested field: IC50. Item: `Cc1ncoc1COc1ccc2c(c1C)CCN(C[C@@H](O)CNC(=O)c1cc(NC3CCCCC3)ncn1)C2`
Marked response: ≥ 10 µM

Exam item: Requested field: IC50. Item: `COCCN(C)c1cc(C(=O)NC[C@H](O)CN2CCc3c(ccc(OCc4ocnc4C)c3C)C2)cc(NC2CCC2)n1`
Marked response: ≥ 10 µM
